# Test system: Staphylococcus aureus
# Test description: Antibacterial activity against Staphylococcus aureus assessed growth inhibition by micro broth dilution method
# Type: functional
The compounds listed here are annotated with their MIC.
Readout name: MIC (µg/mL)

> print(dat)
                                    compound  readout.name  observed.measurement
 1  CCCCCCn1cc(C(=O)OCC)c(=O)c2cc(F)c(F)cc21           MIC                     8
 2  CCOC(=O)c1cn(Cc2cccc(Cl)c2)c2cc(F)c(F)cc2c1=O           MIC                    64
 3  CCOC(=O)C(C#N)c1cc2c(cc1F)c(=O)c(C(=O)O)cn2Cc1ccc(F)cc1F (stereo unspecified)           MIC                     4
 4     CCOC(=O)c1cn(C2CC2)c2cc(F)c(F)cc2c1=O           MIC                    64
 5  CCOC(=O)c1cn(Cc2cccc(Cl)c2)c2cc([C-](C#N)C(=O)OCC)c(F)cc2c1=O.[Na+] (stereo unspecified)           MIC                   128
 6  CCOC(=O)c1cn(C2CC2)c2cc(C(C#N)C(=O)OCC)c(F)cc2c1=O (stereo unspecified)           MIC                    16
 7  CCOC(=O)c1cn(Cc2ccc(F)cc2F)c2cc(C(C#N)C(=O)OCC)c(F)cc2c1=O (stereo unspecified)           MIC                     8
 8   CCCCCn1cc(C(=O)OCC)c(=O)c2cc(F)c(F)cc21           MIC                    32
 9  CCOC(=O)c1cn(Cc2ccccn2)c2cc([C-](C#N)C(=O)OCC)c(F)cc2c1=O.[Na+] (stereo unspecified)           MIC                   256
10  CCOC(=O)c1cn(CC2CCCC2)c2cc(F)c(F)cc2c1=O           MIC                    64
11  CCOC(=O)c1cn(CCN2CCOCC2)c2cc(F)c(F)cc2c1=O           MIC                    64
12  CCOC(=O)c1cn(CC(=O)N2CCN(C(=O)OC(C)(C)C)CC2)c2cc(F)c(F)cc2c1=O           MIC                   256
13  CCOC(=O)c1cn(CC2CC2)c2cc([C-](C#N)C(=O)OCC)c(F)cc2c1=O.[Na+] (stereo unspecified)           MIC                    64
14  CCOC(=O)c1cn(Cc2cnc(Cl)s2)c2cc(F)c(F)cc2c1=O           MIC                   256
15  C=CCn1cc(C(=O)OCC)c(=O)c2cc(F)c([C-](C#N)C(=O)OCC)cc21.[Na+] (stereo unspecified)           MIC                   128
16  CCOC(=O)c1cn(CCN2CCOCC2)c2cc([C-](C#N)C(=O)OCC)c(F)cc2c1=O.[Na+] (stereo unspecified)           MIC                   256
